- System: HT29 colon
- METHOD NOTES: NCI-60 one-dose screen, 48 h (100 = growth as untreated, 0 = no growth, -100 = all killed)
- EXPERIMENTAL PARAMETERS: 10 µM unless noted
About 83,000 compounds went through this panel and 20% of them were active in at least one assay; those are over-represented in the sample as a whole. Activity calls are given as the source filed them. How the source made its calls: active means growth percent below 10; inactive means the rest.
Please provide measured growth for the entries that follow.

[ask] Report growth for COc1ccc(OC)c(Cn2cc3c(c2)-c2oncc2CC3)c1 please.
[reply] 22.3% (inactive)

[ask] State the recorded growth for this entry: COc1ccc2cn3c4ccc(O)cc4[nH]c(=O)c3c2c1
[reply] -89.2% (active)

[ask] Look at this compound and give its reported growth. Cc1nnc(-c2cc3c(ccc4ccccc43)oc2=O)c2cn(-c3ccc(Cl)cc3)nc12
[reply] 95.4% (inactive)

[ask] Report growth for COc1nc(OC)nc(-c2cc(-c3cc(OC)c(OC)c(OC)c3)no2)n1 please.
[reply] 100% (inactive)

[ask] Please report the recorded growth for CCOC(=O)/C(C#N)=C(/CC)OCC .
[reply] 103% (inactive)

[ask] Item CCC(C)C1NC(=O)C(CC(C)C)NC(=O)C(C)NC(=O)C(C(C)C)NC(=O)C(CCCCN)NC(=O)C(CC(C)C)NC(=O)C(C(C)C)NC(=O)[C@H](C)NC(=O)C(C(C)CC)NC(=O)C(CCCN=C(N)N)NC(=O)C(CCCCN)NC(=O)C(CCCN=C(N)N)NC(=O)C(CCCCN)NC(=O)C([C@H](C)CC)NC(=O)C(CCCCN)NC1=O (stereo partly drawn) has what recorded growth?
[reply] 3.41% (active)

[ask] Any idea what growth was measured for COC1NC(Cl)=C(C#N)C(C#N)(C#N)C1(C)C (stereo not drawn) ?
[reply] 108% (inactive)

[ask] growth lookup needed for CC(=O)C(CO)C(=O)Nc1ccccc1 (stereo not drawn) , thanks.
[reply] 101% (inactive)

[ask] Would you kindly share the measured growth for CC1CCCCC[N+]12CCCC2 (stereo not drawn) ?
[reply] 107% (inactive)

[ask] growth for COc1cc(-c2c3c(cn2CCN2CCCCC2)-c2oncc2CC3)cc(OC)c1OC ?
[reply] 84% (inactive)

[ask] Consider the compound CCNc1nnc(COc2ccc(CNC(=O)CCCC/C=C/C(C)C)cc2OC)o1 and give its measured growth.
[reply] 105% (inactive)

[ask] Recorded growth of O=c1[nH]c2cc(O)ccc2n2cc3c(F)cccc3c12 , please.
[reply] 46.2% (inactive)

[ask] Looking for the measured growth of O=C(CCl)c1ccc2c(c1)CCCC2 , can you help?
[reply] 103% (inactive)

[ask] What value of growth has been recorded for this entry: CCCCS(=O)(=O)c1cc(Nc2ccc(O)c3c2C(=O)c2ccccc2C3=O)ccc1C
[reply] 51.5% (inactive)

[ask] May I ask what growth has been recorded for Cc1cc(CSc2ccc(Cl)cc2)ccc1N ?
[reply] 106% (inactive)

[ask] Field request: growth | item: CC/C(=N\Nc1nc2ccccc2n1C)c1ccccn1
[reply] 21.2% (inactive)

[ask] // returns reported growth for input CC1(C)CC(=O)C2=C(C1)Oc1nc(N)c(C#N)c(N)c1C2c1ccc(F)cc1 (stereo not drawn)
[reply] 99.6% (inactive)

[ask] So what does the record say about growth for CC(=O)/C(=C/c1ccc(-c2ccccc2)cc1)C(=O)c1ccccc1 ?
[reply] 70.2% (inactive)

[ask] Could you tell me which growth is on file for CC([C@H]1CCC2C3CCC4C[C@@H](N)CC[C@]4(C)C3CC[C@@]21C)N(C)C (stereo partly drawn) ?
[reply] 15.1% (inactive)

[ask] Value lookup for growth; key = O=C(CN1C(=O)NC(c2ccccc2)(c2ccccc2)C1=O)c1ccc(N2CCCC2)cc1
[reply] 65.3% (inactive)

[ask] Form field: reported growth of CCCCCCCCC(=O)Nc1ccc(O)cc1
[reply] 94.2% (inactive)

[ask] growth lookup needed for O=c1oc2ccc3ccccc3c2cc1-c1ccnc2[nH]c(=S)[nH]c(=O)c12 , thanks.
[reply] 95.3% (inactive)

[ask] May I ask what growth has been recorded for O=C(/C=C/c1c[nH]c2ccccc12)c1cc2ccccc2o1 ?
[reply] 98.9% (inactive)

[ask] Could you tell me which growth is on file for COc1ccc(-c2nnc(SCC(=O)Nc3ccc(C(=O)/C=C/c4cc(OC)c(OC)c(OC)c4)cc3)n2-c2ccccc2)cc1OC ?
[reply] 3.6% [100 µM] (active)

[ask] Quick one: growth of COc1ccc(-c2nc(SCC(C)C)nc(Nc3ccc(C)cc3)c2C#N)cc1 ?
[reply] 82.9% (inactive)

[ask] For Cc1ncc(C(=O)Nc2ccc(CN3CCN(C)CC3)c(C(F)(F)F)c2)cc1C#Cc1c(N)ncc2ccccc12 , what is its reported growth?
[reply] -89% (active)

[ask] GET /values?readout=growth&item= Cc1ccc(OCCn2ccc(=O)n(CCOc3ccc(Cl)cc3C(=O)c3cc(C)cc(C)c3)c2=O)cc1
[reply] 18.9% (inactive)

[ask] Quick one: growth for COc1cc(-c2nn(-c3ccc(NC(=O)Nc4ccc(Cl)c(C(F)(F)F)c4)cc3)cc2-c2ccncc2)ccc1Cl ?
[reply] -24.4% (active)
